Molecular target: KLHDC2^SBD (Homo sapiens, UniProt Q9Y2U9)
Sequence (Q9Y2U9 15-361): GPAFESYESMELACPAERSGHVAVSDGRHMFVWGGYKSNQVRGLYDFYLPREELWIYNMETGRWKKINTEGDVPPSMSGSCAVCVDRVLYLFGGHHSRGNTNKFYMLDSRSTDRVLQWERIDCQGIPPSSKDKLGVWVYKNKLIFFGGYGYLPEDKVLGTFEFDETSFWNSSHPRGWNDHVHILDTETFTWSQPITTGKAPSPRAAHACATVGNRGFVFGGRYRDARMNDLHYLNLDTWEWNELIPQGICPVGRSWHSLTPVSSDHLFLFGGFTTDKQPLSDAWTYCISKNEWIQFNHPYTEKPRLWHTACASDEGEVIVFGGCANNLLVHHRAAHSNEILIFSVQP
Experiment: ITC, binary binding of small molecule to KLHDC2^SBD
Settings: cell: ligand; syringe: KLHDC2^SBD
OUTCOME MEASURE: ITC -TΔS

Some entries whose results are on file:
1. O=C(O)CNC(=O)Cc1csc(-c2ccc3ccccc3c2)n1 [SJ46411] ... -1.52 +/- 0.04 kcal/mol-1
2. Cc1sc2c(c1C)C(c1ccc(Cl)cc1)=N[C@@H](CC(=O)N1CCN(CCOc3cccc4ccc(-c5nc(CC(=O)NCC(=O)O)cs5)cc34)CC1)c1nnc(C)n1-2 [SJ46421] ... -1.03 +/- 0.22 kcal/mol-1

Request: Assign ITC -TΔS to the following record: COCCOc1cccc2ccc(-c3nc(CC(=O)NCC(=O)O)cs3)cc12 [SJ46418]
Result: -0.94 +/- 0.02 kcal/mol-1

Request: Assign ITC -TΔS to the following record: Cc1sc2c(c1C)C(c1ccc(Cl)cc1)=N[C@@H](CC(=O)N1CCN(CCOc3ccc4ccc(-c5nc(CC(=O)NCC(=O)O)cs5)cc4c3)CC1)c1nnc(C)n1-2 [SJ46423]
Result: -5.26 +/- 0.22 kcal/mol-1
